Data origin: patent US12624034B2

target: AKT2 (Homo sapiens); construct: expressed in transfected cells; host or cells: HEK293; assay: Live cell AKT2 target engagement by NanoBRET competitive probe displacement in HEK293 cells; type: binding; details: NanoBRET competitive probe displacement, live HEK293 cells, 2 h at 37° C.; read-out: AKT2 IC50
Assign IC50 to each entry below.
Give the value in nM but do not write nM after it.

Exercise: # get_value(readout= IC50, system= AKT2 (Homo sapiens)) for Nc1ncccc1-c1nc2ccc(-n3cccn3)nc2n1-c1ccc2c(c1)CC[C@@H]2NC1CCN(C(=O)C2COC2)CC1
Key: 2620

Exercise: Any idea what IC50 came out for Cc1ccc(C(=O)N[C@H]2CCc3cc(-n4c(-c5cccnc5N)nc5ccc(-n6cnc(C)n6)nc54)ccc32)cn1 on AKT2 (Homo sapiens)?
Key: 561

Exercise: Param readout= IC50; system= AKT2 (Homo sapiens); entry= Fc1ccccc1-c1nc2ccc(-n3cccn3)nc2n1-c1ccc2c(c1)CC[C@@H]2n1cnnc1 ; returns value.
Key: 621

Exercise: Item COc1cc(C(=O)N[C@H]2CCc3cc(-n4c(-c5ccccc5F)nc5ccc(-n6cccn6)nc54)ccc32)ccn1 with AKT2 (Homo sapiens) - IC50?
Key: 477

Exercise: What reported IC50 corresponds to N#Cc1ncnc(N2CCC(N[C@H]3CCc4cc(-n5c(-c6cccnc6N)nc6ccc(-n7cccn7)nc65)ccc43)CC2)n1 on AKT2 (Homo sapiens)?
Key: 11

Exercise: # get_value(readout= IC50, system= AKT2 (Homo sapiens)) for Nc1ncccc1-c1nc2ccc(-n3cccn3)nc2n1-c1ccc2c(c1)CC[C@@H]2NC1CCN(C(=O)[C@@H]2CCO2)CC1
Key: 5380

Exercise: Form field - read-out: IC50; system: AKT2 (Homo sapiens); submitted item: COc1cc(C(=O)N[C@H]2CCc3cc(-n4c(-c5cccnc5N)nc5ccc(-n6cccn6)nc54)ccc32)sn1
Key: 57

Exercise: Record CN1CC(Oc2ccn(-c3ccc4nc(-c5cccnc5N)n(-c5ccc6c(c5)CC[C@@H]6NC5CCN(C(=O)C6CC6)CC5)c4n3)n2)C1 : what is its IC50 with AKT2 (Homo sapiens)?
Key: 246

Exercise: Missing value: IC50, AKT2 (Homo sapiens), entry N#Cc1nccc(N2CCC(N[C@@H]3c4ccc(-n5c(-c6cccnc6N)nc6ccc(-n7cccn7)nc65)cc4CC3F)CC2)n1 (stereo partly shown) . Fill in?
Key: 26.6

Exercise: So what IC50 did Cn1nc(C(=O)N[C@H]2CCc3cc(-n4c(-c5cccnc5N)nc5ccc(-n6cccn6)nc54)ccc32)cc1F get with AKT2 (Homo sapiens)?
Key: 1730

Exercise: Quick check: IC50 on AKT2 (Homo sapiens), item Cc1ccc(C(=O)N[C@H]2CCc3cc(-n4c(-c5cccnc5N)nc5ccc(C#CC6CC6)nc54)ccc32)cn1 ?
Key: 1390

Exercise: Under AKT2 (Homo sapiens): IC50 value of Nc1ncccc1-c1nc2ccc(-n3ccc(OC4CC4)n3)nc2n1-c1ccc2c(c1)CC[C@@H]2NC1CCN(C(=O)C2CC2)CC1 ?
Key: 1280

###

molecular target: AKT2 (Homo sapiens, UniProt P31751); construct: expressed in transfected cells; host or cells: HEK293; assay: Live cell AKT2 target engagement by NanoBRET competitive probe displacement in HEK293 cells; format: binding; settings: NanoBRET competitive probe displacement, live HEK293 cells, 2 h at 37° C.; read-out: AKT2 IC50
Sequence (P31751 whole entry): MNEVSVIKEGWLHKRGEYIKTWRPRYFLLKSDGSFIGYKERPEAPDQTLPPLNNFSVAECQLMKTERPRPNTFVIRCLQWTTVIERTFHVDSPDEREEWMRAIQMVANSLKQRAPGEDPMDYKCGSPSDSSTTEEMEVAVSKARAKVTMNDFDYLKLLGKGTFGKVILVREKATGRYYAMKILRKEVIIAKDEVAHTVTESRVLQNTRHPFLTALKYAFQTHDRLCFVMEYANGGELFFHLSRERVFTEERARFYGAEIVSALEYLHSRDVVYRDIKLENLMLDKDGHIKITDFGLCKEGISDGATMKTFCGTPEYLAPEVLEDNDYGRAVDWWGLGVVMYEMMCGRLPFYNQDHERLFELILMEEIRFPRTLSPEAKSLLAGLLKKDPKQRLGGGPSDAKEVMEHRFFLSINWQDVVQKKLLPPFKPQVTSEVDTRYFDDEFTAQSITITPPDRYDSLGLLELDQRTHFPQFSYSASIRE
Friendly reminder: IC50 below 1 µM is class 1, at or above is class 0.

Exercise: is_below(IC50, 1 µM) for Cc1ccc(C(=O)N[C@H]2CCc3cc(-n4c(-c5cccnc5N)nc5cc(F)c(-n6nccn6)nc54)ccc32)cn1 ?
Key: class 0

Exercise: Dear reviewer, please state whether Nc1ncccc1-c1nc2ccc(-n3nccn3)nc2n1-c1ccc2c(c1)CC[C@@H]2NC(=O)c1cnc(C2CC2)s1 has IC50 strictly beneath 1 µM.
Key: class 1

Exercise: I wonder whether Nc1ncccc1-c1nc2ccc(-n3cccn3)nc2n1-c1ccc2c(c1)CC[C@@H]2N(C1CC1)C1CCN(C(=O)C2CC2)CC1 has IC50 below 1 µM. Can you tell?
Key: class 0

Exercise: Quick check: IC50 of Cc1ccc(C(=O)N[C@H]2CCc3cc(-n4c(-c5cccnc5N)nc5ccc(-n6ccc(OC(F)F)n6)nc54)ccc32)cn1 under 1 µM?
Key: class 1

Exercise: Could you please tell me whether IC50 recorded for Nc1ncccc1-c1nc2ccc(-n3ccc(NC4CC4)n3)nc2n1-c1ccc2c(c1)CC[C@@H]2NC1CCN(C(=O)C2CC2)CC1 is less than 1 µM?
Key: class 0

Exercise: Problem: For the molecule Nc1ncccc1-c1nc2ccc(-n3cccn3)nc2n1-c1ccc2c(c1)CC[C@@H]2NC1CN(C(=O)C2CC2)C1 , is IC50 under 1 µM?
Key: class 0

Exercise: Bench note: check whether Nc1ncccc1-c1nc2ccc(-n3ccc(Oc4ccccn4)n3)nc2n1-c1ccc2c(c1)CC[C@@H]2NC1CCN(C(=O)C2CC2)CC1 shows IC50 below 1 µM
Key: class 0

Exercise: Determine if Nc1ncccc1-c1nc2ccc(-n3ncc(OC(F)F)n3)nc2n1-c1ccc2c(c1)CC[C@@H]2NC(=O)c1cnc(C(F)F)s1 shows IC50 strictly lower than 1 µM.
Key: class 1

Exercise: Answer whether the molecule COCC#Cc1ccc2nc(-c3cccnc3N)n(-c3ccc4c(c3)CC[C@@H]4NC(=O)c3ccc(C(F)F)nc3)c2n1 has IC50 strictly less than 1 µM
Key: class 0

Exercise: Hello, is IC50 of the following molecule strictly smaller than 1 µM? CN(C)C(=O)c1ccn(-c2ccc3nc(-c4cccnc4N)n(-c4ccc5c(c4)CC[C@@H]5NC4CCN(C(=O)C5CC5)CC4)c3n2)n1
Key: class 1

Exercise: Is 1 µM strictly greater than the molecule's reported IC50? molecule: Nc1ncccc1-c1nc2ccc(-n3cccn3)nc2n1-c1ccc2c(c1)CC[C@H]2NC1CCN(C(=O)C2CC2)CC1
Key: class 0

Exercise: Field: below-cutoff. Rule: recorded IC50 strictly less than 1 µM. Subject: COCCOc1ccn(-c2ccc3nc(-c4cccnc4N)n(-c4ccc5c(c4)CC[C@@H]5NC4CCN(c5ccn(C)n5)CC4)c3n2)n1
Key: class 1

###

Exercise: for every item that follows, state its recorded log10 IC50.
biological target: AKT1 WT (Homo sapiens); construct: expressed in transfected cells; host or cells: HEK293; assay: Live cell AKT1 WT target engagement by NanoBRET competitive probe displacement in HEK293 cells; format: binding; conditions: NanoBRET live cell target engagement, HEK293 cells, 2 h at 37° C.; read-out: AKT1 WT IC50
Sequence (P31749 whole entry): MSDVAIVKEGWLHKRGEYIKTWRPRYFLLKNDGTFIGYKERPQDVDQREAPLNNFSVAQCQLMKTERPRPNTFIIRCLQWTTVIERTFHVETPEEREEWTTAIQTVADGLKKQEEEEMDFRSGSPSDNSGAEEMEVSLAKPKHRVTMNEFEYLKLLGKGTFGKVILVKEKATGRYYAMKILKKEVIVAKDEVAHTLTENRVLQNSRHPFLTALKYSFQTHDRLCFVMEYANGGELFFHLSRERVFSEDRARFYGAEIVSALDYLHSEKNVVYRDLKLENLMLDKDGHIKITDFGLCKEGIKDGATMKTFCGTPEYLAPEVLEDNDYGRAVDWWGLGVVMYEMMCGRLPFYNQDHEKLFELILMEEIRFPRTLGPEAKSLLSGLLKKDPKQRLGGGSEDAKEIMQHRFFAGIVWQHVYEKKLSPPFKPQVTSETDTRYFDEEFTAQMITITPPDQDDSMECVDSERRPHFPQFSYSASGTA
In our notation, the value equals log10 of IC50 in nM.

Exercise: Fill in the blank: the reported log10 IC50 of Cc1ccc2nc(-c3cccnc3N)n(-c3ccc4c(c3)CC[C@@H]4NC(=O)c3ccc(C(F)F)nc3)c2n1 [Compound 146] is ____.
Key: 2.71

Exercise: Entry Nc1ncccc1-c1nc2ccc(-n3cccn3)nc2n1-c1ccc2c(c1)CC[C@@H]2NC1CCN(c2ccccn2)C1 (stereo partly drawn) [Compound 387] has what log10 IC50?
Key: 0.98

Exercise: For the molecule shown here, Cc1ncccc1C(=O)N[C@H]1CCc2cc(-n3c(-c4cccnc4N)nc4ccc(-n5nccn5)nc43)ccc21 [Compound 93] , give the reported log10 IC50.
Key: 1.59

Exercise: Any idea what log10 IC50 was measured for Cc1ccc(C(=O)N[C@H]2CCc3cc(-n4c(-c5cccnc5N)nc5ccc(-n6nccn6)nc54)ccc32)cn1 [Compound 67] ?
Key: 1.18

Exercise: Field request: log10 IC50 | item: Nc1ncccc1-c1nc2ccc(-n3cccn3)nc2n1-c1ccc2c(c1)CC[C@@H]2NC(=O)c1ccc(Cl)cc1 [Compound 263]
Key: 0.96

Exercise: Looking for the measured log10 IC50 of Nc1ncccc1-c1nc2ccc(-n3cccn3)nc2n1-c1ccc2c(c1)CC[C@@H]2NC(=O)c1cccnc1C(F)(F)F [Compound 110] , can you help?
Key: 1.66

Exercise: # log10 IC50 lookup, item COc1cncc(C(=O)N[C@H]2CCc3cc(-n4c(-c5cccnc5N)nc5ccc(-n6cccn6)nc54)ccc32)n1 [Compound 348]
Key: 1.76

Exercise: What value of log10 IC50 has been reported for the following molecule? Nc1ncccc1-c1nc2ccc(-n3cccn3)nc2n1-c1ccc2c(c1)CC[C@@H]2NC(=O)c1ccc2[nH]cnc2c1 [Compound 22]
Key: 1.05

Exercise: // lookup log10 IC50 for Nc1ncccc1-c1nc2ccc(-n3cccn3)nc2n1-c1ccc2c(c1)CC[C@@H]2NC(=O)c1ccnc(OC2CC2)c1 [Compound 201]
Key: 0.97

Exercise: Quick one: log10 IC50 of Cc1nccnc1C(=O)N[C@H]1CCc2cc(-n3c(-c4cccnc4N)nc4ccc(-c5cccc(N6CCN(C)CC6)c5)nc43)ccc21 [Compound 269] ?
Key: 0.51

Exercise: Value lookup for log10 IC50; key = N#CC1(C(=O)N2CCC(N[C@H]3CCc4cc(-n5c(-c6cccnc6N)nc6ccc(-n7cccn7)nc65)ccc43)CC2)CC1 [Compound 369]
Key: 2.07

Exercise: log10 IC50 for Cc1ccc(C(=O)N[C@H]2CCc3cc(-n4c(-c5cccnc5N)nc5ccc(-n6cccn6)nc54)ccc32)c(C)n1 [Compound 69] ?
Key: 1.04

Exercise: Fill in: log10 IC50 of Nc1ncccc1-c1nc2ccc(-n3cccn3)nc2n1-c1ccc2c(c1)CC[C@@H]2NC1CCN(c2ccccn2)C1 (stereo partly drawn) [Compound 388] is ___
Key: 1.46

Exercise: Which value of log10 IC50 has been reported for Nc1ncccc1-c1nc2ccc(C#CC3CCC3)nc2n1-c1ccc2c(c1)CC[C@@H]2NC(=O)c1ccc(C(F)F)nc1 [Compound 226] in the records?
Key: 1.66

Exercise: # get_value(readout='log10 IC50', item= Cc1csc(-c2ccc3nc(-c4cccnc4N)n(-c4ccc5c(c4)CC[C@@H]5NC(=O)c4nccnc4C)c3n2)n1 [Compound 302] )
Key: 1.32

Exercise: For the molecule shown here, Nc1ncccc1-c1nc2ccc(-n3cccn3)nc2n1-c1ccc2c(c1)CC[C@@H]2NC(=O)c1nccnc1C(F)F [Compound 119] , give the reported log10 IC50.
Key: 1.96

Exercise: What log10 IC50 value was documented for this molecule, Cc1nccnc1C(=O)N[C@H]1CCc2cc(-n3c(-c4cccnc4N)nc4ccc(-c5ncco5)nc43)ccc21 [Compound 270] ?
Key: 2.73

Exercise: What value of log10 IC50 has been recorded for this entry: Nc1ncccc1-c1nc2ccc(-n3cccn3)nc2n1-c1ccc2c(c1)CC[C@@H]2NC(=O)c1cccn2ccnc12 [Compound 161]
Key: 1.98

Exercise: # get_value(readout='log10 IC50', item= COc1cc(-n2cccn2)nc2c1nc(-c1cccnc1N)n2-c1ccc2c(c1)CC[C@@H]2NC(=O)c1cccnc1C [Compound 124] )
Key: 1.14

Exercise: Form field: reported log10 IC50 of Nc1ncccc1-c1nc2ccc(-n3cccn3)nc2n1-c1ccc2c(c1)CC[C@@H]2NC(=O)c1ccnc2c1CCCO2 [Compound 361]
Key: 1.39

Exercise: Please look up its log10 IC50: Cc1ncc(C(=O)N[C@H]2CCc3cc(-n4c(-c5cccnc5N)nc5ccc(-n6cccn6)nc54)ccc32)cn1 [Compound 143]
Key: 1.40

Exercise: Please report the recorded log10 IC50 for CN(C)[C@H]1CCc2cc(-n3c(-c4cccnc4N)nc4ccc(-n5cccn5)nc43)ccc21 [Compound 340] .
Key: 1.58

Exercise: Quick check: log10 IC50 of Cc1ncccc1C(=O)N[C@H]1CCc2cc(-n3c(-c4cccnc4N)nc4ccc(-n5cccn5)nc43)ccc21 [Compound 29] ?
Key: 1.20

Exercise: # lookup: log10 IC50 of CNS(=O)(=O)c1cccc(C(=O)N[C@H]2CCc3cc(-n4c(-c5cccnc5N)nc5ccc(-n6cccn6)nc54)ccc32)c1 [Compound 239]
Key: 2.07

Exercise: Data request, read-out log10 IC50, for Cc1cc(C(F)F)ncc1C(=O)N[C@H]1CCc2cc(-n3c(-c4cccnc4N)nc4ccc(-n5cccn5)nc43)ccc21 [Compound 56]
Key: 1.09

Exercise: May I ask what log10 IC50 has been recorded for Cc1cc(C(=O)N[C@H]2CCc3cc(-n4c(-c5cccnc5N)nc5ccc(-n6nccn6)nc54)ccc32)cnc1C(F)F [Compound 102] ?
Key: 1.50

Exercise: Return reported log10 IC50; argument: Nc1ncccc1-c1nc2ccc(-n3cccn3)nc2n1-c1ccc2c(c1)CC[C@@H]2n1cnnc1-c1ccccc1 [Compound 178]
Key: 1.95
